So I've got a bunch of compounds here, and I need their MTD values.
- protocol: Maximal tolerated dose
- applied.conditions: mouse, in vivo, ip; NOD/SCID mice, intraperitoneal
Square brackets hold non-standard residues; d marks the D form. Peptide text beside a SMILES is read from it. * marks the point of attachment. ξ: configuration not given here. Chlorambucil = O=C(CCCc1ccc(N(CCCl)CCCl)cc1)*; ξCha = NC(CC1CCCCC1)C(=O)O
Lab book: enter the figure in mg/kg, no units written.

// O=C(O)CCCc1ccc(N(CCCl)CCCl)cc1 [Cbl, chlorambucil, reference compound] : MTD value = 400

// N=C(N)NCCC[C@@H](NC(=O)C(CC1CCCCC1)NC(=O)[C@@H](CCCNC(=N)N)NC(=O)C(CC1CCCCC1)NC(=O)[C@@H](CCCNC(=N)N)NC(=O)C(CC1CCCCC1)NC(=O)CCCc1ccc(N(CCCl)CCCl)cc1)C(N)=O (some centres unmarked) [mt-Cbl] (Chlorambucil-[ξCha][dR][ξCha][dR][ξCha][dR]-NH2) : MTD value = 50

---

- protocol: Pharmacokinetic study, plasma levels by HPLC-MS/MS
- Type: in vivo
- applied.conditions: mouse, ip, CD1 mice, single dose 10 mg/kg intraperitoneal
measurement.name: half-life (min)
Lab book: enter the figure in min, no units written.

// O=C(O)CCCc1ccc(N(CCCl)CCCl)cc1 [Cbl, chlorambucil, reference compound] : half-life value = 45

---

- protocol: Rate of hydrolysis in saline or plasma (HPLC-MS/MS)
- Type: in vitro ADME, mouse
- applied.conditions: mouse plasma, 37°C
measurement.name: half-life (h)
Lab book: enter the figure in h, no units written.

// O=C(O)CCCc1ccc(N(CCCl)CCCl)cc1 [Cbl, chlorambucil, reference compound] : half-life value = 1

---

- protocol: Rate of hydrolysis in saline or plasma (HPLC-MS/MS)
- Assay type: in vitro ADME, mouse
- applied.conditions: mouse; saline, 37°C
measurement.name: half-life (min)
Lab book: enter the figure in min, no units written.

// O=C(O)CCCc1ccc(N(CCCl)CCCl)cc1 [Cbl, chlorambucil, reference compound] : half-life value = 60
